# system_tested: human serum albumin (human) (UniProt P02768)
# Sequence (P02768 25-609 limits assumed): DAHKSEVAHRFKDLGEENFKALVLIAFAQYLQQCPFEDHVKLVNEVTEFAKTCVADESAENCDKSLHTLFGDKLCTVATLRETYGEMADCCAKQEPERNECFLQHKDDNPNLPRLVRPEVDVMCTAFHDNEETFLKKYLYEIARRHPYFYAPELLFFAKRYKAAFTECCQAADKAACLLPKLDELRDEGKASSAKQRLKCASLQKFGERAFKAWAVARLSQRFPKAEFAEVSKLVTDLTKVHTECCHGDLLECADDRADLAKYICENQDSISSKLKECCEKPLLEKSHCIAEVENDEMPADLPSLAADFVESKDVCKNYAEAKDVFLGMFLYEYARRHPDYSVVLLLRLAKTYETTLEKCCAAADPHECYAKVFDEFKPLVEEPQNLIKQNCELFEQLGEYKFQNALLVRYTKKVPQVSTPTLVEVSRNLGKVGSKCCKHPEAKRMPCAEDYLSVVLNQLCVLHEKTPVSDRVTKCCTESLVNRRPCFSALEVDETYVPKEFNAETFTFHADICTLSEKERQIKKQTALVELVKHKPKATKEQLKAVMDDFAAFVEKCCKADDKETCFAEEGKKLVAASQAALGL
# assay_notes: screening ELISA
endpoint_name: HSA
Numbers only.

Known HSA results, listed for orientation:
SEQ ID NO 224 (designed binder) MLLAPKNLVVSRVTEDSARLSWTAPDAAFDSFRYLEQGLYGEAIVLTVPGSERSYDLTGLKPGTEYWVEIIGVKGGEYSTPLSAIFTT : 16500
SEQ ID NO 95 (designed binder) MLPAPKNLVVSRVTEDSARLSWTAPDAAFDSFRISYYEWYDLGEAIVLTVPGSERSYDLTGLKPGTEYWVDIAGVKGGYYSYPLSAIFTT : 1900

Consider now this further binder.
Incoming: // HSA lookup, key: SEQ ID NO 216 (designed binder) MLPAPKNLVVSRVTEDSARLSWTAPDAAFDSFPIAYAEPTPSGEAIVLTVPGSERSYDLTGLKPGTEYSVLIHGVKGGGLSLPLSAIFTT
Outgoing: 21800
